- assay-remarks: NCI Yeast Anticancer Drug Screen. Data for the sgs1 mgt1 strain (AID 161);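 also: 0% = growth of cultures given vehicle only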
- measurement-conditions: S. cerevisiae sgs1 mgt1 strain, at 50.0 µM, stronger effect = higher value
This is part of a sample that, as a whole, favours compounds with a hit. Of some 79,000 tested, about 15% had one in any assay.
Listed here: items and their measured growth inhibition.

compound: CC(C)CCCC(C)C1CCC2C3C(=O)C=C4C=CCCC4(C)C3CCC12C (stereo not drawn)
growth inhibition, %: 34.1

compound: CCCNC(=O)CCC(=O)NS(=O)(=O)c1ccc(Cl)cc1
growth inhibition, %: 16.5

compound: OC(CBr)CBr
growth inhibition, %: 0.4

compound: O=c1[nH]cnc2nc(N3CCN(c4ccccc4)CC3)sc12
growth inhibition, %: 19.8

compound: COc1ccc(C(=O)C(c2ccccc2)c2ccccc2)cc1
growth inhibition, %: -13.2

compound: CC1(C)CC(=NNC(N)=S)CC(C)(C)N1
growth inhibition, %: 14.3

compound: COC(=O)c1ccccc1NC(=O)Nc1ccc(SC)cc1
growth inhibition, %: 19.6

compound: CCCCCCCCCCCCCCCCS(=O)(=O)c1ccc(S(=O)(=O)CS(C)(=O)=O)cc1[N+](=O)[O-]
growth inhibition, %: 9.85

compound: COC1(C)CCC2(O)C(=O)OC3C(O)COC32O1 (stereo not drawn)
growth inhibition, %: 2.55

compound: CSCCC(NC(c1ccccc1)c1ccccc1)[P+](=O)O (stereo not drawn)
growth inhibition, %: -37.5

compound: COC(=O)CCc1c[nH]c2ccc(N)cc12
growth inhibition, %: -14.8

compound: CN1CCCNCCN(CCc2ccccn2)CCCN(C)CC1
growth inhibition, %: -12.5

compound: O=C(CCl)Oc1cccc([N+](=O)[O-])c1
growth inhibition, %: -7.05

compound: O=C(c1ccccc1)N(C(=O)c1ccccc1)c1cccc[n+]1[O-]
growth inhibition, %: -1.75

compound: CCCCCCCCCCCCCCCCCC(=O)N/N=C/c1ccccc1OC
growth inhibition, %: 9.25

compound: CCCCCCCCCCCCCCCCCCNc1ccccc1
growth inhibition, %: 12.2

compound: C(=N/NC(=N/N=C/c1ccccc1)N/N=C/c1ccccc1)/c1ccccc1
growth inhibition, %: 46.6

compound: O=C1c2ccccc2NC(c2cc(Cl)cc(Cl)c2O)N1CCc1ccccn1 (stereo not drawn)
growth inhibition, %: -14.4

compound: CCOc1ccc(C=O)cc1OCC
growth inhibition, %: -9.3

compound: O=C1C(N=Nc2ccc([N+](=O)[O-])cc2)Sc2nc3ccccc3n21 (stereo not drawn)
growth inhibition, %: 7.6

compound: CCOC(=O)CC1(C)OCC(c2ccccc2)O1 (stereo not drawn)
growth inhibition, %: -3.6

compound: CC(C(=O)O)C1(O)CCCCC1 (stereo not drawn)
growth inhibition, %: -8.4

compound: COC(=O)CC(NC(=O)OCc1ccccc1)C(=O)NC(COC(C)=O)C(=O)NCC(=O)OCc1ccccc1 (stereo not drawn)
growth inhibition, %: 10.3

compound: CCCCCCCCCCCCCCCCCCNC(=O)N1CCC(C)CC1
growth inhibition, %: 21.2

compound: Cc1cccc(CBr)c1-c1c(C)cccc1CBr
growth inhibition, %: 10.1

compound: C#CCC(O)c1ccc(OC)c(OCc2ccccc2)c1 (stereo not drawn)
growth inhibition, %: 18.6

compound: N#C/C(=C/c1cccc([N+](=O)[O-])c1)C(=O)O
growth inhibition, %: 22.6

compound: COc1cc(CC(=O)c2ccc3c(c2)OCO3)cc(OC)c1OC
growth inhibition, %: -8.95

compound: Cn1c(=O)c2c(-c3ccccc3)cc(-c3ccccc3)nc2n(C)c1=O
growth inhibition, %: 1.95

compound: O=CSC(=Nc1ccc(Cl)cc1)NC(=O)COc1ccc(Cl)cc1
growth inhibition, %: 58.9

compound: Cn1cnc(N)c1S(N)(=O)=O
growth inhibition, %: 9.7

compound: SC1(S)CCCN(Cc2ccccc2)C1
growth inhibition, %: 42.8

compound: O=c1[nH]c2cc(Cl)ccc2nc1/C=C(\O)c1ccc([N+](=O)[O-])cc1
growth inhibition, %: 37.4

compound: O=C(O)CCCCCNC(=O)c1ccccc1
growth inhibition, %: 16.2

compound: O=C1O/C(=C/c2ccc(O)cc2)c2ccccc21
growth inhibition, %: -4.1

compound: CCCCC1C2C(S(=O)(=O)c3ccccc3)=NOC2C=CN1C(C)=O (stereo not drawn)
growth inhibition, %: 1.55

compound: CN(C)N=Nc1c(F)cccc1F
growth inhibition, %: -28.6

compound: Cn1cncc1CC1COC(=O)C1C(O)c1ccccc1 (stereo not drawn)
growth inhibition, %: -14.2

* * *

Listed here: items and their measured growth inhibition.
- assay-remarks: NCI Yeast Anticancer Drug Screen. Data for the cln2 rad14 strain (AID 165);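 also: 0% = growth equal to vehicle treated cultures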
- measurement-conditions: S. cerevisiae cln2 rad14 strain, at 50.0 µM, stronger effect = higher value
- Experimental: Growth inhibition of yeast strains with defined genetic alterations is measured as a screen for potential anti-cancer activity. Selected strains with alterations in DNA damage repair or cell cycle control were exposed to compounds and growth inhibition was measured relative to vehicle treated controls. The strain used in this assay is cln2 rad14
About 79,000 compounds went through this panel and 15% of them were active in at least one assay; those are over-represented in the sample as a whole.

molecule: S=C(Nc1ccccc1)Nc1nc(-c2ccccc2)c(N=Nc2ccc(Cl)cc2)s1
growth inhibition (%): 18.6

molecule: N#CCCn1ncc(C#N)c1N
growth inhibition (%): -38.5

molecule: CC1(C)CC(=O)C(C=NC(=O)c2ccncc2)=C(O)C1
growth inhibition (%): -3.8

molecule: CC1=CC(c2ccccc2)(c2ccccc2)c2ccccc21
growth inhibition (%): -19.1

molecule: Cc1cc(=O)[nH]c(NN2C(Cl)C(=O)C2c2cccc(Cl)c2)n1 (configuration not stated)
growth inhibition (%): 2.6

molecule: CC(c1ccccc1)C(C)(C)O (configuration not stated)
growth inhibition (%): 20.3

molecule: CC[N+](C)(CC)CCl
growth inhibition (%): -45.4

molecule: Cc1ccc(S(=O)(=O)/N=C/C=P(c2ccccc2)(c2ccccc2)c2ccccc2)cc1
growth inhibition (%): -19

molecule: COc1ccc(C(=O)C2CC(=O)NC2=O)cc1 (configuration not stated)
growth inhibition (%): -38.5

molecule: O=C(CCCCCC(=O)N1CC(CCl)c2ccc([N+](=O)[O-])cc21)N1CC(CCl)c2ccc([N+](=O)[O-])cc21 (configuration not stated)
growth inhibition (%): -4.5

molecule: CC12CCC3C(CCC4CCCCC43C)C1CCC2CO (configuration not stated)
growth inhibition (%): -11.3

molecule: Cc1ccc(C(=O)N/N=C/c2ccccc2Cl)cc1
growth inhibition (%): -20.4

molecule: O=C(OCc1ccccc1)N(Cc1ccccc1)S(=O)(=O)c1ccccc1
growth inhibition (%): 5.5

molecule: CCCCCCCCCCCCCCCCCCCCCCCCCC(=O)O
growth inhibition (%): 4.5

molecule: CC(=O)NC1C(SC(=O)NCCCl)OC(COC(C)=O)C(OC(C)=O)C1OC(C)=O (configuration not stated)
growth inhibition (%): -16.8

molecule: O=Cc1c(O)nc[nH]c1=O
growth inhibition (%): 6.75

molecule: C=CC(O)C(O)C=C (configuration not stated)
growth inhibition (%): 8.25

* * *

Listed here: items and their measured growth inhibition.
- assay-remarks: NCI Yeast Anticancer Drug Screen. Data for the rad50 strain (AID 155);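 also: 0% = growth of vehicle-only cultures of the same strain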
- measurement-conditions: S. cerevisiae rad50 strain growth inhibition; at 50.0 µM; stronger effect = higher value
This is part of a sample that, as a whole, favours compounds with a hit. Of some 79,000 tested, about 15% had one in any assay. Where a SMILES comes first, the peptide text is derived from it. The star is where a group is joined. Boc = CC(C)(C)OC(=O)*
measured-parameter: growth inhibition (%)

molecule: O=C(CN1CCC(O)(c2ccc(F)cc2)CC1)N1CCN(C/C=C/c2ccccc2)CC1
unit-of-measurement: %
readout-number: 42

molecule: COC1N(C2C=CC(CO)O2)C(=O)NC(=O)C1(C)Br (centres undefined)
unit-of-measurement: %
readout-number: -4.8

molecule: CC(NC(=O)C(NC(=O)OC(C)(C)C)C(C)C)C(=O)N1CCCC1C(=O)O (stereo not drawn) (Boc-Val-Ala-Pro-OH; configuration not given here)
unit-of-measurement: %
readout-number: -38.4

molecule: CC(=O)OC1COC(n2cnc3c(N)ncnc32)C(OC(C)=O)C1OC(C)=O (centres undefined)
unit-of-measurement: %
readout-number: 5.3

molecule: CC[n+]1cc([N+](=O)[O-])ccc1Cl
unit-of-measurement: %
readout-number: 17.5

molecule: CCC(Oc1ccc(Cl)cc1Cl)C(=O)O (centres undefined)
unit-of-measurement: %
readout-number: -4.4

molecule: O=C1O/C(=C(\Br)c2ccc([N+](=O)[O-])cc2)c2ccccc21
unit-of-measurement: %
readout-number: 30.4

molecule: C/C=C/Sc1ccccc1C(=O)O
unit-of-measurement: %
readout-number: -14.3

molecule: COc1ccc(Cl)cc1[N+](=O)[O-]
unit-of-measurement: %
readout-number: 27.6

molecule: COC(=O)CCC(=O)CC(=O)C1=NS(=O)(=O)c2nc(S(N)(=O)=O)c(Cl)cc2N1
unit-of-measurement: %
readout-number: -5.3

molecule: CC1CC[C@]2(C(=O)O)CCC3(COC(=O)/C=C\c4ccc(O)cc4)C(=CCC4[C@@]5(C)CC[C@H](O)C(C)(C)C5CC[C@]43C)[C@@H]2[C@H]1C (some centres undefined)
unit-of-measurement: %
readout-number: -1.9

molecule: CC(O)CNc1ncnc2c1cnn2C (centres undefined)
unit-of-measurement: %
readout-number: -4.1

molecule: O=c1c2cc([N+](=O)[O-])ccc2n2n1Cc1ccccc1CC2
unit-of-measurement: %
readout-number: -12.8

molecule: COc1ccc(NC(=O)Cc2cc3ccccc3oc2=O)cc1
unit-of-measurement: %
readout-number: 8.05

molecule: CCN(CC)CC(O)c1ccc2ccccc2c1 (centres undefined)
unit-of-measurement: %
readout-number: 47.6

molecule: COC(=O)c1cccnc1C#N
unit-of-measurement: %
readout-number: 2.2

molecule: Clc1ccc(CNc2ncnc3nc(Cl)[nH]c23)cc1
unit-of-measurement: %
readout-number: -14.4

molecule: CSc1nc(NC(=O)O)c(N(C(C)=O)C(=O)O)c(=O)n1C
unit-of-measurement: %
readout-number: -15.3

molecule: COC1OC(CO)C(O)C1O (centres undefined)
unit-of-measurement: %
readout-number: -25

molecule: COc1ccc2nc3cc([N+](=O)[O-])ccc3c(Nc3ccc(S(=O)(=O)N=C(N)N)cc3)c2c1
unit-of-measurement: %
readout-number: 59.8

molecule: OC1Cn2cc(Br)c[n+]2C1 (centres undefined)
unit-of-measurement: %
readout-number: 8.3

molecule: Cc1sc2ncnc(Cl)c2c1C
unit-of-measurement: %
readout-number: 1.95

molecule: O=C(NC(Cc1cccnc1)C(=O)O)c1ccccc1 (centres undefined)
unit-of-measurement: %
readout-number: 2.85

molecule: Nc1nc2c(ccc3ccccc32)[nH]1
unit-of-measurement: %
readout-number: -19.8
